As shown below, each of these binders has a reported BINDING ASSAY SIGNAL value.
# system: T1, human plasma Kallikrein (human, UniProt P03952 20-638)
# T1 construct: also called hPK; human PK
# T1 sequence (P03952 20-638 limits assumed): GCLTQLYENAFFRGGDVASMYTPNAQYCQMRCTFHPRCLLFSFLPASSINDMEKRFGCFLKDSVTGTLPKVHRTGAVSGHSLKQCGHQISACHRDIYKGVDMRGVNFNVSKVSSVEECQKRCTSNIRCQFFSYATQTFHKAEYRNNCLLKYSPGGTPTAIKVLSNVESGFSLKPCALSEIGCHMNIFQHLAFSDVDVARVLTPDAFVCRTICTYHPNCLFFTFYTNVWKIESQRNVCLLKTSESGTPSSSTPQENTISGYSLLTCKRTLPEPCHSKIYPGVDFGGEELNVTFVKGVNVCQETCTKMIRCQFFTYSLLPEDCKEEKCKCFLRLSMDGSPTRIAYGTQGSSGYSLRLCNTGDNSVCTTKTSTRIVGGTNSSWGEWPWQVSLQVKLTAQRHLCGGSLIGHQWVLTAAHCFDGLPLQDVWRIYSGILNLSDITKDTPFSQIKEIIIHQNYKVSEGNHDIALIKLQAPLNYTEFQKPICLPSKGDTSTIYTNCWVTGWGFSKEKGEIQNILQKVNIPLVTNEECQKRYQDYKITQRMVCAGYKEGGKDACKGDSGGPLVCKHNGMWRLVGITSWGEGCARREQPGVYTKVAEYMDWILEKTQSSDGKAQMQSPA
# measurement_notes: phage binding assay
Numbered stars: 1 amine (or outer) side, 2 acyl side, 3 side chain; on linkers, the order of the positions; unused ones are H or OH. Bridge positions count the residues as written; N and C are the ends. Ends that are not written are not given here. TBMB = c1c(C[*:1])cc(C[*:3])cc1C[*:2]

For orientation, consider the following solved cases.
binder	BINDING ASSAY SIGNAL
CTWPARCLHQDLC (linker 1-7-13 via TBMB, on phage)	73
CAWPARCTHTHLC (linker 1-7-13 via TBMB, on phage)	66
CAWPARCMHDDLC (linker 1-7-13 via TBMB, on phage)	69

I would be grateful if you could share the reported BINDING ASSAY SIGNAL for CAWPARCTHTDLC (linker 1-7-13 via TBMB, on phage) .
92

I would be grateful if you could share the reported BINDING ASSAY SIGNAL for CHWPARCTHQELC (linker 1-7-13 via TBMB, on phage) .
85

I would be grateful if you could share the reported BINDING ASSAY SIGNAL for CPWPARCTHQNLC (linker 1-7-13 via TBMB (inferred), on phage) .
69
